test system: PPARg DBDmut:RXRa IVT, anti-PPARg (DBD mutation: PPARg1 K132A/R137A, NR concentration 270 nM, RXRa partner concentration 90 nM); test: PBM binding z-score (relative to random genomic background probes); higher = stronger binding; sequences stand for … in GC…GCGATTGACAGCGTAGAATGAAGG
Class field: derived from PBM binding z-score; ranges low bin = under 0.3, mid bin = from 0.3 up to 1, high bin = 1 and over

sequence_content | class
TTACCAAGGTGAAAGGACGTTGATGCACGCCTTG | mid bin
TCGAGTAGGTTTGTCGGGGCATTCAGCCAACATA | low bin
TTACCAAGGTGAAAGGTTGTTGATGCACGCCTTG | low bin
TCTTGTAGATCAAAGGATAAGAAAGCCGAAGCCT | mid bin
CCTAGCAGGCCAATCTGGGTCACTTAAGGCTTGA | low bin
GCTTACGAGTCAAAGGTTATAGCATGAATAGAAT | mid bin
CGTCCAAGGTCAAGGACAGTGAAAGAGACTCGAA | high bin
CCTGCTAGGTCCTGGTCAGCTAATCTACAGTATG | low bin
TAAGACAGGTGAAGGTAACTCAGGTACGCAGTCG | mid bin
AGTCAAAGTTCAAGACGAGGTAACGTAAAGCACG | high bin
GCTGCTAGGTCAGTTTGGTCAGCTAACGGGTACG | low bin
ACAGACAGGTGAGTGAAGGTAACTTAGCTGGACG | low bin
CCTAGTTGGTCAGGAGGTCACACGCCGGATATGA | mid bin
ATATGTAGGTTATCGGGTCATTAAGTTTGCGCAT | high bin
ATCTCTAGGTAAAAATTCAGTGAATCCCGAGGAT | high bin
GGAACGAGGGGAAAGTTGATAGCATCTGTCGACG | low bin
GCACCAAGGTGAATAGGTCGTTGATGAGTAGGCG | low bin
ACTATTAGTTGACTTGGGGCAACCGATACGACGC | high bin
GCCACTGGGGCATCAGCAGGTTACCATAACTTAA | low bin
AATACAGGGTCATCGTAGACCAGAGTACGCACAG | high bin
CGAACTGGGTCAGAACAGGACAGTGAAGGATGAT | high bin
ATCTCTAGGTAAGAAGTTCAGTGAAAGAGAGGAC | mid bin
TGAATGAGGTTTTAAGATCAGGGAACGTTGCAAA | low bin
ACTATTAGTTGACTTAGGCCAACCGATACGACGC | high bin
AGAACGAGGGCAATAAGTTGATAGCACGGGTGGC | mid bin

* * *

tested on: FXR:RXRa (NR concentration 270 nM, RXRa partner concentration 90 nM); test: PBM binding z-score (relative to random genomic background probes); higher = stronger binding; sequences stand for … in GC…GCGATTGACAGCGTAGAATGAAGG
Quick rule for you: PBM binding z-score at 1 or higher means t, lower means f.

sequence_content | measured_target | class
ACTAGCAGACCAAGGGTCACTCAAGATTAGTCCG | FXR:RXRa (NR concentration 270 nM, RXRa partner concentration 90 nM) | t
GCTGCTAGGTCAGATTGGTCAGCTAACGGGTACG | FXR:RXRa (NR concentration 270 nM, RXRa partner concentration 90 nM) | t
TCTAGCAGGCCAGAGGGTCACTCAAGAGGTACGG | FXR:RXRa (NR concentration 270 nM, RXRa partner concentration 90 nM) | f
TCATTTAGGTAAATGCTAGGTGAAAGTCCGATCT | FXR:RXRa (NR concentration 270 nM, RXRa partner concentration 90 nM) | f
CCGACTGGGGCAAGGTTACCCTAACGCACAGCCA | FXR:RXRa (NR concentration 270 nM, RXRa partner concentration 90 nM) | f
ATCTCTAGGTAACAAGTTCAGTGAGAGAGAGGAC | FXR:RXRa (NR concentration 270 nM, RXRa partner concentration 90 nM) | f
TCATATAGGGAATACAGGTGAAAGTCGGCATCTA | FXR:RXRa (NR concentration 270 nM, RXRa partner concentration 90 nM) | t
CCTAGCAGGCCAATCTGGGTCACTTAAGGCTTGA | FXR:RXRa (NR concentration 270 nM, RXRa partner concentration 90 nM) | f
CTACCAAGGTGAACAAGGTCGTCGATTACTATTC | FXR:RXRa (NR concentration 270 nM, RXRa partner concentration 90 nM) | t
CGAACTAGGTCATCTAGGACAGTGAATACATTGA | FXR:RXRa (NR concentration 270 nM, RXRa partner concentration 90 nM) | t
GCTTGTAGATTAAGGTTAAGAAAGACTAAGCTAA | FXR:RXRa (NR concentration 270 nM, RXRa partner concentration 90 nM) | f
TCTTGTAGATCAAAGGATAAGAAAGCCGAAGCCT | FXR:RXRa (NR concentration 270 nM, RXRa partner concentration 90 nM) | f
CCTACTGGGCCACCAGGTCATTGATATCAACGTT | FXR:RXRa (NR concentration 270 nM, RXRa partner concentration 90 nM) | t
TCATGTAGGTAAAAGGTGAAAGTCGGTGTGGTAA | FXR:RXRa (NR concentration 270 nM, RXRa partner concentration 90 nM) | t
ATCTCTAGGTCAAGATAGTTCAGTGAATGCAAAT | FXR:RXRa (NR concentration 270 nM, RXRa partner concentration 90 nM) | t
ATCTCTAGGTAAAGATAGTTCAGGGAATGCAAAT | FXR:RXRa (NR concentration 270 nM, RXRa partner concentration 90 nM) | f
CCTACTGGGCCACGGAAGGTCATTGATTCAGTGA | FXR:RXRa (NR concentration 270 nM, RXRa partner concentration 90 nM) | t
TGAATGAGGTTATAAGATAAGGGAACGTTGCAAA | FXR:RXRa (NR concentration 270 nM, RXRa partner concentration 90 nM) | t
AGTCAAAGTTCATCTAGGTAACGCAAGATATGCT | FXR:RXRa (NR concentration 270 nM, RXRa partner concentration 90 nM) | t
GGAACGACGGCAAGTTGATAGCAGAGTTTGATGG | FXR:RXRa (NR concentration 270 nM, RXRa partner concentration 90 nM) | f
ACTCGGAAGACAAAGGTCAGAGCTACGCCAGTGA | FXR:RXRa (NR concentration 270 nM, RXRa partner concentration 90 nM) | t
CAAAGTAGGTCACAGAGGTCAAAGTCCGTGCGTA | FXR:RXRa (NR concentration 270 nM, RXRa partner concentration 90 nM) | t
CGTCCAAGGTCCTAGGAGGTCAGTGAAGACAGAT | FXR:RXRa (NR concentration 270 nM, RXRa partner concentration 90 nM) | t
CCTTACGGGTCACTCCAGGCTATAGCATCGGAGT | FXR:RXRa (NR concentration 270 nM, RXRa partner concentration 90 nM) | t
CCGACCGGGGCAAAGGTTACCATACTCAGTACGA | FXR:RXRa (NR concentration 270 nM, RXRa partner concentration 90 nM) | t

Data origin: the supplement of paper PMC6555819
